// values below are reported IC50
Molecular target: WT KRAS (Homo sapiens, UniProt P01116)
Sequence (P01116 1-188 isoform P01116-2): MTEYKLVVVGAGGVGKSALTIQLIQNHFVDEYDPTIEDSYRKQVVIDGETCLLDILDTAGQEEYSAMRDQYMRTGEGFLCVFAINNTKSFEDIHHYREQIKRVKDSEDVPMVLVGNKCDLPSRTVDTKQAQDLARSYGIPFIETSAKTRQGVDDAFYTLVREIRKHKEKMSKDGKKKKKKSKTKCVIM
Test: KRAS WT Probe Displacement Assay (TR-FRET, GDP-loaded)
Assay type: binding
Conditions: KRAS WT, read-out: KRAS^WT Probe Displacement Assay IC50

Nc1cc(Cl)c(C(F)(F)F)c(-c2nc3c4c(nc(OCC5(CN6CCC(=C(F)F)C6)CC5)nc4c2F)N2C[C@H]4CC[C@H](N4)[C@H]2CCO3)c1 :: 3 to 1000 nM
Cc1cc(N)cc(-c2nc3c4c(nc(OCC5(CN6CCOC[C@H]6C)CC5)nc4c2F)N2C[C@H]4CC[C@H](N4)[C@H]2CCO3)c1C(F)(F)F :: 3 to 1000 nM
Cc1cc(N)cc(-c2nc3c4c(nc(OCC5(CN6CCC6)CC5(F)F)nc4c2F)N2C[C@H]4CC[C@H](N4)[C@H]2CCO3)c1C(F)(F)F (single isomer, unassigned) [Example 57] :: 3 to 1000 nM
[2H]C([2H])([2H])N1CC[C@H](OC)[C@H]1[C@H](C)Oc1nc2c3c(nc(-c4cc(N)cc(Cl)c4C(F)(F)F)c(F)c3n1)OCC[C@@H]1[C@@H]3CC[C@H](CN21)N3 :: 0.3 to 3 nM

Pending molecule:
Q) Give the measured IC50 of `Cc1cc(N)cc(-c2nc3c4c(nc(OCC5(CN6CC(O)(C(F)(F)F)C6)CC5)nc4c2F)N2C[C@H]4CC[C@H](N4)[C@H]2CCO3)c1C(F)(F)F` .
A) 3 to 1000 nM

====

// values below are reported pIC50
Molecular target: WT KRAS (Homo sapiens, UniProt P01116)
Test: KRAS WT Probe Displacement Assay (TR-FRET, GDP-loaded)
Type: binding
Details: KRAS WT, read-out: KRAS^WT Probe Displacement Assay IC50
pIC50: −log10 of the molar value.

Please review the entries below; each comes with its answer.
Cc1cc(N)cc(-c2nc3c4c(nc(OCC5(C)CN(C)CC/C5=C\F)nc4c2F)N2C[C@H]4CC[C@H](N4)[C@H]2CCO3)c1C(F)(F)F (single isomer, unassigned) [Example 236] :: 6.00 to 8.52
Cc1cc(N)cc(-c2nc3c4c(nc(N5CC(N(C)C)C5)nc4c2F)N2C[C@H]4CC[C@H](N4)[C@H]2CCO3)c1C(F)(F)F :: 6.00 to 8.52
Cc1cc(N)cc(-c2nc3c4c(nc(OCC5(CN6CCC7(C6)CC7(F)F)CC5)nc4c2F)N2C[C@H]4CC[C@H](N4)[C@H]2CCO3)c1C(F)(F)F (mixture of isomers) [Example 90] :: 8.52 to 9.52
Cc1cc(N)cc(-c2nc3c4c(nc(OCC5(CN6CC7CC7C6)CC5(F)F)nc4c2F)N2C[C@H]4CC[C@H](N4)[C@H]2CCO3)c1C(F)(F)F (single isomer, unassigned) [Example 28] :: 6.00 to 8.52

Pending molecule:
Q) Give the measured pIC50 of Cc1cc(N)cc(-c2nc3c4c(nc(OCC5(CN6CCC7(CCOC7)C6)CC5)nc4c2F)N2C[C@H]4CC[C@H](N4)[C@H]2CCO3)c1C(F)(F)F (some centres unmarked) .
A) > 9.52

====

// values below are reported IC50
Target: WT KRAS (Homo sapiens)
Test: KRAS WT Probe Displacement Assay (TR-FRET, GDP-loaded)
Type: binding
Details: KRAS WT, read-out: KRAS^WT Probe Displacement Assay IC50
Text: The synthetic routes of probe 1 and 2, which have been disclosed in PCT/CN2022/070676, are hereby incorporated herein.

Q) Give the measured IC50 of Cc1cc(N)cc(-c2nc3c4c(nc(OCC5(CN6CC(F)(F)C6)CC5)nc4c2F)N2C[C@H]4CC[C@H](N4)[C@H]2CCO3)c1C(F)(F)F [Example 82] .
A) 3 to 1000 nM

Q) Give the measured IC50 of [2H]C([2H])([2H])N1C[C@H](OC)C[C@H]1[C@H](C)Oc1nc2c3c(nc(-c4cc(N)cc(C)c4C(F)(F)F)c(F)c3n1)OCC[C@@H]1[C@@H]3CC[C@H](CN21)N3 [Example 219] .
A) 3 to 1000 nM

Q) Give the measured IC50 of Cc1cc(N)cc(-c2nc3c4c(nc(OCC5(CN6CCC(C#N)C6)CC5)nc4c2F)N2C[C@H]4CC[C@H](N4)[C@H]2CCO3)c1C(F)(F)F (some centres unmarked) [Example 166] .
A) 3 to 1000 nM

Q) Give the measured IC50 of Cc1cc(N)cc(-c2nc3c4c(nc(OCC5(CN6CCOC[C@@H]6C)CC5)nc4c2F)N2C[C@H]4CC[C@H](N4)[C@H]2CCO3)c1C(F)(F)F [Example 164] .
A) 3 to 1000 nM

Q) Give the measured IC50 of Nc1cc(Cl)c(C(F)(F)F)c(-c2nc3c4c(nc(OCC5(CN6CCC(=CF)CC6)CC5)nc4c2F)N2C[C@H]4CC[C@H](N4)[C@H]2CCO3)c1 [Example 156] .
A) 0.3 to 3 nM

====

Target: WT KRAS (Homo sapiens, UniProt P01116)
Assay: KRAS WT Probe Displacement Assay (TR-FRET, GDP-loaded)
Assay type: binding
Settings: KRAS WT, read-out: KRAS^WT Probe Displacement Assay IC50
pIC50: −log10 of the molar value.
// values below are reported pIC50

Please review the entries below; each comes with its answer.
Nc1cc(Cl)c(C(F)(F)F)c(-c2nc3c4c(nc(OCC5(CN6CCC(=C(F)F)CC6)CC5)nc4c2F)N2C[C@H]4CC[C@H](N4)[C@H]2CCO3)c1 [Example 148] :: 8.52 to 9.52
CN(C)CC1(COc2nc3c4c(nc(-c5cc(N)cc(Cl)c5C(F)(F)F)c(F)c4n2)OCC[C@@H]2[C@@H]4CC[C@H](CN32)N4)CC1F (single isomer, unassigned) [Example 52] :: 8.52 to 9.52
Cc1cc(N)cc(-c2nc3c4c(nc(OCC5(CN(C)C)CC5(F)F)nc4c2F)N2C[C@H]4CC[C@H](N4)[C@H]2CCO3)c1C(F)(F)F (single isomer, unassigned) [Example 17] :: 6.00 to 8.52
COC[C@H]1[C@H]2C[C@H]2CN1CC1(COc2nc3c4c(nc(-c5cc(N)cc(C)c5C(F)(F)F)c(F)c4n2)OCC[C@@H]2[C@@H]4CC[C@H](CN32)N4)CC1 [Example 183] :: 6.00 to 8.52

Pending compound:
Q) Give the measured pIC50 of Cc1cc(N)cc(-c2nc3c4c(nc(OCC5(CN6CCc7cnn(C)c7C6)CC5)nc4c2F)N2C[C@H]4CC[C@H](N4)[C@H]2CCO3)c1C(F)(F)F [Example 193] .
A) 6.00 to 8.52

====

Molecular target: UniProt:P01116
Assay: KRAS WT Probe Displacement Assay (TR-FRET, GDP-loaded)
Format: binding
Details: KRAS WT, read-out: KRAS^WT Probe Displacement Assay IC50
// values below are reported IC50

Nc1cc(Cl)c(C(F)(F)F)c(-c2nc3c4c(nc(OCC56C[C@@H](F)CN5C[C@H](F)C6)nc4c2F)N2C[C@H]4CC[C@H](N4)[C@H]2CCO3)c1 [Example 72] :: 3 to 1000 nM
Cc1cc(N)cc(-c2nc3c4c(nc(OCC5(CN6[C@@H]7CC[C@H]6CC(F)(F)C7)CC5)nc4c2F)N2C[C@H]4CC[C@H](N4)[C@H]2CCO3)c1C(F)(F)F [Example 175] :: 3 to 1000 nM
Cc1cc(N)cc(-c2nc3c4c(nc(OCC5(CN6CC7CC6CC7(F)F)CC5)nc4c2F)N2C[C@H]4CC[C@H](N4)[C@H]2CCO3)c1C(F)(F)F [Example 174] :: 3 to 1000 nM
Cc1cc(N)cc(-c2nc3c4c(nc(OC[C@]5(O)COC[C@H]5N(C)C)nc4c2F)N2C[C@H]4CC[C@H](N4)[C@H]2CCO3)c1C(F)(F)F [Example 131] :: 3 to 1000 nM

Pending compound:
Q) Give recorded IC50 with UniProt:P01116 for the following compound: Cc1cc(N)cc(-c2nc3c4c(nc(OCC5(CN6CC7CC(C6)O7)CC5)nc4c2F)N2C[C@H]4CC[C@H](N4)[C@H]2CCO3)c1C(F)(F)F [Example 105]
A) 0.3 to 3 nM

====

Biological target: WT KRAS (Homo sapiens, UniProt P01116)
Test: KRAS WT Probe Displacement Assay (TR-FRET, GDP-loaded)
Format: binding
Settings: KRAS WT, read-out: KRAS^WT Probe Displacement Assay IC50
MEASURE_NAME: IC50

Please review the entries below; each comes with its answer.
Cc1cc(N)cc(-c2nc3c4c(nc(OCC5(C)CN(CC6CC6)CC/C5=C\F)nc4c2F)N2C[C@H]4CC[C@H](N4)[C@H]2CCO3)c1C(F)(F)F (single isomer, unassigned) [Example 238] :: 3 to 1000 nM
Cc1cc(N)cc(-c2nc3c4c(nc(O[C@@H](C)[C@@H]5CCCN5CC5CC5)nc4c2F)N2C[C@H]4CC[C@H](N4)[C@H]2CCO3)c1C(F)(F)F [Example 230] :: 3 to 1000 nM
Cc1cc(N)cc(-c2nc3c4c(nc(OC[C@@]56C[C@@H](F)CN5C[C@@]5(CC5(F)F)C6)nc4c2F)N2C[C@H]4CC[C@H](N4)[C@H]2CCO3)c1C(F)(F)F [Example 199] :: 0.3 to 3 nM
Cc1cc(N)cc(-c2nc3c4c(nc(OCC5(CN6CCCC67CCOC7)CC5)nc4c2F)N2C[C@H]4CC[C@H](N4)[C@H]2CCO3)c1C(F)(F)F (some centres unmarked) [Example 190] :: 3 to 1000 nM

Pending compound:
Q) Give the measured IC50 of Cc1cc(N)cc(-c2nc3c4c(nc(OCC5(CN6CCC7(C6)CC7(F)F)CC5)nc4c2F)N2C[C@H]4CC[C@H](N4)[C@H]2CCO3)c1C(F)(F)F (single isomer, unassigned) [Example 138] .
A) 0.3 to 3 nM
